Target Entity: T1, hPDGFRb.mmh (human, UniProt P09619 33-531)
T1 construct: Soluble monomeric construct; also called soluble human PDGFR-beta.mmh
T1 sequence (P09619 other isoform, or with tags, fused parts or gaps): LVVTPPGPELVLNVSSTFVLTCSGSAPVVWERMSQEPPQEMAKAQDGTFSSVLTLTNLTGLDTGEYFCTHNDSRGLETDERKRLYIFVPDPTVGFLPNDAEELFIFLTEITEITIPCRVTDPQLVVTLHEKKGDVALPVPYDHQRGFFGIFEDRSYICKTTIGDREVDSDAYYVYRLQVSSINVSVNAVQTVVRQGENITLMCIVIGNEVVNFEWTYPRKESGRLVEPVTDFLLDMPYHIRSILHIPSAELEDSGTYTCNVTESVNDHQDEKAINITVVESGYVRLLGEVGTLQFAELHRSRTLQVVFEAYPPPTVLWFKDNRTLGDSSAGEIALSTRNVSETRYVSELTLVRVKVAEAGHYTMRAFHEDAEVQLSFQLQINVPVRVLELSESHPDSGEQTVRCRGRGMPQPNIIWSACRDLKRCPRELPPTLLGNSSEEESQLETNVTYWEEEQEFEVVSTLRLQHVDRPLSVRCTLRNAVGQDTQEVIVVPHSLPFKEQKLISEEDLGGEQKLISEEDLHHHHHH
Assay Name: blocking ELISA, biot-hPDGFRb.mmh to coated PDGF-BB
Measurement Kind: % Maximum Blocking (%)
Numbers only, in %.

response.value for H4H3097S (antibody, human IgG4, V domains shown, human IgG4 Fc (H4H prefix)) VH: QVQLVESGAEMKKPGASVKVSCKASGYTFTDYGINWVRQAPGQGLEWMGWVSGYNGNTVFAQKIQGRVTMTTDTSTSTAYMELRSLRSDDTAVYFCARISVRGHSYYHGMGVWGQGTTVTVSS VL: AIRMTQSPSSLSASVGDRVTITCRASQDINSYLAWFQQKPGKAPKSLIYTASSLQSGVPSKFSGSGSGTDFTLTISSLQPEDFATYYCQQYNTYPYTFGQGTKVESK (field: % Maximum Blocking) = 5

Origin of measurements: patent US20170210813A1
